- study-system: NDM-1 (Klebsiella pneumoniae)
- Sequence (C7C422 whole entry, looked up, species assumed): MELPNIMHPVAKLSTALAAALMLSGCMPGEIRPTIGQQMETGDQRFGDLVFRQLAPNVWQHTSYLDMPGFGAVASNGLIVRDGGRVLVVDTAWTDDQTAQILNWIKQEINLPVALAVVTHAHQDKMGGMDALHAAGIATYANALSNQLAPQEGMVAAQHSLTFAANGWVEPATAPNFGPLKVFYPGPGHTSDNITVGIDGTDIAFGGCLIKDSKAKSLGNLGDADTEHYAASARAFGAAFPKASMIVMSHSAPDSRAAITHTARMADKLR
- procedure-text: biochemical
- Assay type: biochemical
- details: NDM-1 enzyme, CCF2-FA fluorescence assay; read-out: NDM-1 IC50
measured-attribute: IC50 (nM)
API: value field is a number in nM; no unit string.

# example entries with known answers
NS(=O)(=O)c1cccc(-c2cnc3[nH]ncc3c2)c1-c1nn[nH]n1 [Example 309] = 1.35
NS(=O)(=O)c1c(C(F)(F)F)ccc(-c2ccc(C3CCNCC3)cc2)c1-c1nn[nH]n1 [Example 269] = 1.21
N#Cc1ccc(-c2cccc(S(N)(=O)=O)c2-c2nnn[nH]2)cc1 [Example 308] = 11.3

// below: IC50 requested for another compound
Query: Consider the compound NS(=O)(=O)c1c(C(F)(F)F)ccc(-c2ccc3c(c2)CNC3)c1-c1nn[nH]n1 [Example 441] and give its recorded IC50.
Result: 11.3
